TARGET_OR_SYSTEM: human JAK2 (Homo sapiens, UniProt O60674)
Construct: catalytic domain (amino acids 808-1132; catalog number PV4210); GST
Sequence (O60674 808-1132): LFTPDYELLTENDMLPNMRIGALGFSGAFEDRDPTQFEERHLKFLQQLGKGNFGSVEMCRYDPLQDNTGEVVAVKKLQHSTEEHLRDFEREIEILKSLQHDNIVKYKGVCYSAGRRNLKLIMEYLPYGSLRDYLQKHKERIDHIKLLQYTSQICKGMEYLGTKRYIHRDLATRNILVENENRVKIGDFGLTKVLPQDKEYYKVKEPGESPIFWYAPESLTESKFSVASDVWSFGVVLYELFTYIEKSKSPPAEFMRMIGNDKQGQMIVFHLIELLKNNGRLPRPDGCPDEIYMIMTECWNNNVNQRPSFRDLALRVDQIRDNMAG
ASSAY_DETAILS: JAK2 inhibition assay (polyGT substrate / Ulight-JAK1 peptide)
STATED_CONDITIONS: recombinant human JAK2 catalytic domain; polyGT or Ulight-JAK1 peptide assay
Parameter IC50: see the listing below.

// below: answered compounds
In: Suppose we examine the compound CCc1cc(C(=O)N2CCS(=O)(=O)CC2)ccc1N(C)c1cc2c(cn1)ncn2C [Compound 104] ; what IC50 value has been reported?
Out: > 1000 nM

In: Fill in: IC50 of COc1ccc(COc2cccc(N(C)c3cc4c(cn3)ncn4C)c2C)cc1 [Compound 44] is ___
Out: > 1000 nM

In: Would you kindly share the measured IC50 for CCc1cc(C(=O)N2CC(C)(C)C2)ccc1N(C)c1cc2c(cn1)ncn2C [Compound 113] ?
Out: > 1000 nM

In: Would you mind telling me what IC50 value was observed for CCc1cc(CNS(C)(=O)=O)c(F)cc1N(C)c1cc2c(cn1)ncn2C [Compound 325] ?
Out: 0.01 to 100 nM

More entries:
In: Query: IC50; subject: COc1cc(N2CCOCC2)ncc1N(C)c1cc2c(cn1)ncn2C [Compound 313]
Out: 101 to 500 nM

In: What measured IC50 goes with CC(C)S(=O)(=O)N1CC(c2ccc(N(C)c3cc4c(cn3)ncn4C)c(OC(F)F)c2)C1 [Compound 373] ?
Out: 101 to 500 nM

In: Recorded IC50 for CCc1cc(-c2cnn(C)c2)ccc1N(C)c1cc2c(cn1)ncn2C [Compound 93] , please?
Out: 0.01 to 100 nM

In: // returns reported IC50 for input CCc1cc(CN(C)S(C)(=O)=O)c(F)cc1N(C)c1cc2c(cn1)ncn2C [Compound 319]
Out: 0.01 to 100 nM
